Reference source: PubChem BioAssay AID1963869

Entries and their viability, T/C
Test system: KRAS patient-derived spheroids with HUVEC/MSC, viability
Assay remarks: Anticancer human tumor 323965-272-R-J2-PDC patient-derived pancreatic carcinoma cell line growth inhibition [KRAS2]
Run parameters: second compound 1 µM; first compound 1 µM; hits give low values

Molecule | viability, T/C, %
CCNC(=O)CC1N=C(c2ccc(Cl)cc2)c2cc(OC)ccc2-n2c(C)nnc21 (stereo not given) + CC1OCC2(CCN(c3cnc(Sc4ccnc(N)c4Cl)c(N)n3)CC2)C1N | 22.2
COc1cc2nccc(Oc3ccc(NC(=O)C4(C(=O)Nc5ccc(F)cc5)CC4)cc3)c2cc1OC + CNCc1ccccc1-c1csc(C(C)Nc2nc(C)nc3cc(OC)c(OC)cc23)c1 | 101
CCN1CCN(Cc2ccc(Nc3ncc(F)c(-c4cc(F)c5nc(C)n(C(C)C)c5c4)n3)nc2)CC1 + CNCc1ccccc1-c1csc(C(C)Nc2nc(C)nc3cc(OC)c(OC)cc23)c1 | 57.7
O=C(c1cc(Cc2n[nH]c(=O)c3ccccc23)ccc1F)N1CCN(C(=O)C2CC2)CC1 + C=CC(=O)N1CCN(c2nc(OCC3CCCN3C)nc3c2CCN(c2cccc4cccc(C)c24)C3)CC1CC#N | 59.7
CC1(C)CCC(CN2CCN(c3ccc(C(=O)NS(=O)(=O)c4ccc(NCC5CCOCC5)c([N+](=O)[O-])c4)c(Oc4cnc5[nH]ccc5c4)c3)CC2)=C(c2ccc(Cl)cc2)C1 + C=CC(=O)N1CCN(c2nc(=O)n(-c3c(C)ccnc3C(C)C)c3nc(-c4c(O)cccc4F)c(F)cc23)C(C)C1 | 59.5

* * *

Tested on: KRAS patient-derived spheroids with HUVEC/MSC, viability
Assay remarks: Anticancer human tumor 323965-272-R-J2-PDC cell line growth inhibition [KRAS2];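 also: spheroids exposed to agents for 7 days; 100% = DMSO vehicle control viability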
Run parameters: second compound 0.1 µM; first compound 0.000316 µM; hits give low values
Entries and their viability, T/C

Molecule | Units of measure | viability, T/C
CC(=O)Nc1cccc(-n2c(=O)n(C3CC3)c(=O)c3c(Nc4ccc(I)cc4F)n(C)c(=O)c(C)c32)c1 + COc1cc2nc(C)nc(NC(C)c3cc(N)cc(C(F)(F)F)c3)c2cc1OC1CCOC1 | % | 67.3
CC(=O)Nc1cccc(-n2c(=O)n(C3CC3)c(=O)c3c(Nc4ccc(I)cc4F)n(C)c(=O)c(C)c32)c1 + C=CC(=O)N1CCN(c2nc(=O)n(-c3c(C)ccnc3C(C)C)c3nc(-c4c(O)cccc4F)c(F)cc23)C(C)C1 | % | 62.2
CN(C)C/C=C/C(=O)Nc1cc2c(Nc3ccc(F)c(Cl)c3)ncnc2cc1O[C@H]1CCOC1 + CC1OCC2(CCN(c3cnc(Sc4ccnc(N)c4Cl)c(N)n3)CC2)C1N | % | 68.4

* * *

Test system: KRAS patient-derived spheroids with HUVEC/MSC, viability
Assay remarks: Anticancer human tumor 323965-272-R-J2-PDC cell line growth inhibition [KRAS2];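 also: spheroids exposed to agents for 7 days; 100% = DMSO vehicle control viability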
Run parameters: second compound 3.16 µM; first compound 3.16 µM; hits give low values
Readout kind: viability, T/C (%)

Compound | Readout kind | Endpoint result
O=C(c1cc(Cc2n[nH]c(=O)c3ccccc23)ccc1F)N1CCN(C(=O)C2CC2)CC1 + CC1OCC2(CCN(c3cnc(Sc4ccnc(N)c4Cl)c(N)n3)CC2)C1N | viability, T/C | 36.8
COc1cc(Nc2ncc3c(n2)-c2ccc(Cl)cc2C(c2c(F)cccc2OC)=NC3)ccc1C(=O)O + CNCc1ccccc1-c1csc(C(C)Nc2nc(C)nc3cc(OC)c(OC)cc23)c1 | viability, T/C | 63.3
COC(=O)c1ccc2c(C(=Nc3ccc(N(C)C(=O)CN4CCN(C)CC4)cc3)c3ccccc3)c(O)[nH]c2c1 + C=CC(=O)N1CCN(c2nc(OCC3CCCN3C)nc3c2CCN(c2cccc4cccc(C)c24)C3)CC1CC#N | viability, T/C | 9.71
CC1COCCN1c1cc(-c2ccnn2C)c2ccnc(-c3ccn[nH]3)c2n1 (centres undefined) + COc1cc2nc(C)nc(NC(C)c3cc(N)cc(C(F)(F)F)c3)c2cc1OC1CCOC1 | viability, T/C | 9.91
COC(=O)c1ccc2c(C(=Nc3ccc(N(C)C(=O)CN4CCN(C)CC4)cc3)c3ccccc3)c(O)[nH]c2c1 + C=CC(=O)N1CCN(c2nc(=O)n(-c3c(C)ccnc3C(C)C)c3nc(-c4c(O)cccc4F)c(F)cc23)C(C)C1 | viability, T/C | 22.1
Cn1nccc1Nc1nccc(-c2cc3c(s2)C(C)(C)N(CCN2CCOCC2)C3=O)n1 + COc1cc2nc(C)nc(NC(C)c3cc(N)cc(C(F)(F)F)c3)c2cc1OC1CCOC1 | viability, T/C | 29.1
CC1COCCN1c1cc(-c2ccnn2C)c2ccnc(-c3ccn[nH]3)c2n1 (centres undefined) + C=CC(=O)N1CCN(c2nc(=O)n(-c3c(C)ccnc3C(C)C)c3nc(-c4c(O)cccc4F)c(F)cc23)C(C)C1 | viability, T/C | 12.8
COc1cc(Nc2ncc3c(n2)-c2ccc(Cl)cc2C(c2c(F)cccc2OC)=NC3)ccc1C(=O)O + CC1OCC2(CCN(c3cnc(Sc4ccnc(N)c4Cl)c(N)n3)CC2)C1N | viability, T/C | 24.1
CC1COCCN1c1cc(-c2ccnn2C)c2ccnc(-c3ccn[nH]3)c2n1 (centres undefined) + CNCc1ccccc1-c1csc(C(C)Nc2nc(C)nc3cc(OC)c(OC)cc23)c1 | viability, T/C | 8.8
